Target: mMC3R (Mus musculus)
Sequence (P33033 whole entry): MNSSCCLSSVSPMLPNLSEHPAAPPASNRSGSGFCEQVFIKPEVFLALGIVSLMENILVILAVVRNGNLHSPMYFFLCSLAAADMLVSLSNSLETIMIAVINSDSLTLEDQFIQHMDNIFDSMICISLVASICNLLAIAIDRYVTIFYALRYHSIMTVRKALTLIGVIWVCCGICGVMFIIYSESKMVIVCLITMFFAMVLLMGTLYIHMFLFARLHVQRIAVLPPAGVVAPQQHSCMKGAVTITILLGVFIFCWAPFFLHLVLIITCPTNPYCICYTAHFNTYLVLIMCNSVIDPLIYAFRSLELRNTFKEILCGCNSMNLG
Assay: cAMP based functional bioassay
Assay type: cell-based
Conditions: mMC3R EC50, agonist; mean ± SEM; >100000 = no activity at up to 100μM
pEC50: −log10 of the molar value. Ends that are not written are not given here.
parameter: pEC50

1) MGHFRWDRF [Peptide 27] ... 7.00

====

Target: mMC5R (Mus musculus, UniProt P41149)
Sequence (P41149 whole entry): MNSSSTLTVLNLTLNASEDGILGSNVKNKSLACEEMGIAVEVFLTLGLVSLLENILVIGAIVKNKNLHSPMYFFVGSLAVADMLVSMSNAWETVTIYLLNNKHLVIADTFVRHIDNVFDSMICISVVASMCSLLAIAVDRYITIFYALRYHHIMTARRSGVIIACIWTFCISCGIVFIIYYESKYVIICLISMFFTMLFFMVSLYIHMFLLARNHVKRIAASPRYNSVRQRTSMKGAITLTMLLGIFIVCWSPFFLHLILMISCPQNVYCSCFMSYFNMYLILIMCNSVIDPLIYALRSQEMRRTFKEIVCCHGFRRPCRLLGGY
Test: cAMP based functional bioassay
Format: cell-based
Conditions: mMC5R EC50, agonist; mean ± SEM; >100000 = no activity at up to 100μM
Ends that are not written are not given here.
parameter: EC50 (nM)

1) MGHFRWDRF [Peptide 27] ... 365
